B1: ADD1 (parent)
chain: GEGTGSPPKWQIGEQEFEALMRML

# Variants of: B1
# assay procedure: protein stability index of a GFP-peptide fusion (GPS, HEK-293T) (PSI 1-6); higher = more stable;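 note: lentivirally expressed fusions sorted by FACS into six bins by GFP to DsRed ratio, PSI derived from sequencing read proportions per bin multiplied by bin number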
# run parameters: c terminus: a fixed tail appended
Classes are defined on protein stability index with ranges low = under 3, middle = from 3 up to 4, high = 4 and over

## Task Returns: class label. Input: M21S
## Result middle

## Task Returns: class label. Input: R22Q
## Result middle

## Task Returns: class label. Input: Q15I
## Result low

## Task Returns: class label. Input: G3Y
## Result middle

Others:
## Task Returns: class label. Input: M23Q
## Result high

## Task Returns: class label. Input: G3D
## Result middle

## Task Returns: class label. Input: F17V
## Result middle

## Task Returns: class label. Input: G1C
## Result low

## Task Returns: class label. Input: E16L
## Result low

## Task Returns: class label. Input: L20D
## Result high

## Task Returns: class label. Input: M21L
## Result low
